# Long-term stability, 2 month, -20°C Accuracy [%] values compiled below
assay: Long-term stability in spiked pooled human plasma; settings: validation standard LLOV
Use % as the unit, but write only the number.

Recorded Long-term stability, 2 month, -20°C Accuracy [%], per entry:
| Molecule | Observed Value |
| --- | --- |
| COc1cc2nccc(Oc3ccc(NC(=O)C4(C(=O)Nc5ccc(F)cc5)CC4)cc3)c2cc1OC [Cabozantinib] | 97.7 |
| COc1cc2nccc(Oc3ccc(NC(=O)Nc4cc(C)on4)c(Cl)c3)c2cc1OC | 95.8 |
| CCc1cc2c(cc1N1CCC(N3CCOCC3)CC1)C(C)(C)c1[nH]c3cc(C#N)ccc3c1C2=O | 79.9 |
| CCOc1cc2ncc(C#N)c(Nc3ccc(OCc4ccccn4)c(Cl)c3)c2cc1NC(=O)/C=C/CN(C)C | 77.1 |
| COC(=O)N[C@@H](C)CNc1nccc(-c2cn(C(C)C)nc2-c2cc(Cl)cc(NS(C)(=O)=O)c2F)n1 | 103.4 |
| CN(C)C(=O)c1cc2cnc(Nc3ccc(N4CCNCC4)cn3)nc2n1C1CCCC1 | 92.7 |
| Cc1ccc(NC(=O)c2ccc(CN3CCN(C)CC3)cc2)cc1Nc1nccc(-c2cccnc2)n1 | 95.6 |
| Cc1cc(Nc2ncc(Cl)c(Nc3ccccc3S(=O)(=O)C(C)C)n2)c(OC(C)C)cc1C1CCNCC1 | 99.7 |
| CNCc1ccc(-c2[nH]c3cc(F)cc4c3c2CCNC4=O)cc1 | 115.1 |
| CNC(=O)c1cc(Oc2ccc(NC(=O)Nc3ccc(Cl)c(C(F)(F)F)c3)c(F)c2)ccn1 | 106.3 |

# lookup: Long-term stability, 2 month, -20°C Accuracy [%] of CCCS(=O)(=O)Nc1ccc(F)c(C(=O)c2c[nH]c3ncc(-c4ccc(Cl)cc4)cc23)c1F
104.5

# lookup: Long-term stability, 2 month, -20°C Accuracy [%] of NC(=O)c1cccc2cn(-c3ccc([C@@H]4CCCNC4)cc3)nc12
101.8

====

test: Long-term stability in spiked pooled human plasma; settings: validation standard ULOV
# Long-term stability, 2 month, -20°C Accuracy [%] values compiled below
Use % as the unit, but write only the number.

| Chemical String | Observed Value |
| --- | --- |
| CCC1=C[C@@H]2CN(C1)Cc1c([nH]c3ccccc13)[C@@](C(=O)OC)(c1cc3c(cc1OC)N(C)[C@H]1[C@@](O)(C(=O)OC)[C@H](OC(C)=O)[C@]4(CC)C=CCN5CC[C@]31[C@@H]54)C2 | 87.6 |
| O=C(c1cc(Cc2n[nH]c(=O)c3ccccc23)ccc1F)N1CCN(C(=O)C2CC2)CC1 | 102.1 |

# lookup: Long-term stability, 2 month, -20°C Accuracy [%] of CN(C)C/C=C/C(=O)Nc1cc2c(Nc3ccc(F)c(Cl)c3)ncnc2cc1O[C@H]1CCOC1
88.3

====

assay: Long-term stability in spiked pooled human plasma; settings: validation standard 2xLLOV
Endpoint: Long-term stability, 2 month, -20°C Accuracy [%] (%)
Use % as the unit, but write only the number.

| Compound | Observed Value |
| --- | --- |
| COc1cc2c(Nc3ccc(Br)cc3F)ncnc2cc1OCC1CCN(C)CC1 | 105.9 |
| CNC(=O)c1ccc(N2C(=S)N(c3ccc(C#N)c(C(F)(F)F)c3)C(=O)C2(C)C)cc1F [Enzalutamide] | 91.5 |
| COc1cc2nccc(Oc3ccc(NC(=O)Nc4cc(C)on4)c(Cl)c3)c2cc1OC | 98.9 |
| COc1cc2ncnc(Nc3ccc(F)c(Cl)c3)c2cc1NC(=O)/C=C/CN1CCCCC1 | 96.1 |
| Cc1nc(Nc2ncc(C(=O)Nc3c(C)cccc3Cl)s2)cc(N2CCN(CCO)CC2)n1 | 98.2 |
| C[C@H]1Oc2cc(cnc2N)-c2c(nn(C)c2C#N)CN(C)C(=O)c2ccc(F)cc21 | 91.9 |
| O=C1CN2Cc3c(ccc(Cl)c3Cl)N=C2N1 [Anagrelide] | 121.4 |
| COc1cc2nccc(Oc3ccc(NC(=O)NC4CC4)c(Cl)c3)c2cc1C(N)=O | 97.0 |
| Cc1c(C(=O)Nc2ccc(N3C[C@@H](C)O[C@@H](C)C3)nc2)cccc1-c1ccc(OC(F)(F)F)cc1 | 111.0 |
| CNC(=O)c1ccc(N2C(=S)N(c3cnc(C#N)c(C(F)(F)F)c3)C(=O)C23CCC3)cc1F [Apalutamide] | 91.6 |

# lookup: Long-term stability, 2 month, -20°C Accuracy [%] of O=C(c1ccc(F)c(F)c1Nc1ccc(I)cc1F)N1CC(O)([C@@H]2CCCCN2)C1
98.0

# lookup: Long-term stability, 2 month, -20°C Accuracy [%] of Cc1cn(-c2cc(NC(=O)c3ccc(C)c(Nc4nccc(-c5cccnc5)n4)c3)cc(C(F)(F)F)c2)cn1
96.9

# lookup: Long-term stability, 2 month, -20°C Accuracy [%] of CNCc1ccc(-c2[nH]c3cc(F)cc4c3c2CCNC4=O)cc1
100.7
